molecular target: human D2LR (Homo sapiens); test: Radioligand competition, [3H]spiperone, CHO cell membranes; details: read-out: Ki hD2LR; [3H]spiperone; mean ± SEM
assay_readout: Ki (nM)

INSERT INTO results (compound, assayed_system, recorded_number) VALUES
  ('CCCN(CCCCc1cn(-c2ccc(C(=O)NCCCNC(=O)Cc3ccc4c(c3)C(C)(C)C3=C5C=C6C7=[N+](CCC6OC5CCN34)c3ccc(S(=O)(=O)[O-])cc3C7(C)C)cc2)nn1)C1Cc2ccccc2C1 (centres unmarked) [10b]', 'human D2LR (Homo sapiens)', 10),
  ('CCCN(CCCCc1cn(-c2ccc(C(=O)NCCCNC(=O)c3ccc(-c4c5ccc(=N)c(S(=O)(=O)O)c-5oc5c(S(=O)(=O)O)c(N)ccc45)c(C(=O)O)c3)cc2)nn1)C1Cc2ccccc2C1 [10c]', 'human D2LR (Homo sapiens)', 23);

----------
molecular target: human D2LR (Homo sapiens, UniProt P14416); assay: Radioligand competition, [3H]spiperone, CHO cell membranes
Sequence (P14416 whole entry): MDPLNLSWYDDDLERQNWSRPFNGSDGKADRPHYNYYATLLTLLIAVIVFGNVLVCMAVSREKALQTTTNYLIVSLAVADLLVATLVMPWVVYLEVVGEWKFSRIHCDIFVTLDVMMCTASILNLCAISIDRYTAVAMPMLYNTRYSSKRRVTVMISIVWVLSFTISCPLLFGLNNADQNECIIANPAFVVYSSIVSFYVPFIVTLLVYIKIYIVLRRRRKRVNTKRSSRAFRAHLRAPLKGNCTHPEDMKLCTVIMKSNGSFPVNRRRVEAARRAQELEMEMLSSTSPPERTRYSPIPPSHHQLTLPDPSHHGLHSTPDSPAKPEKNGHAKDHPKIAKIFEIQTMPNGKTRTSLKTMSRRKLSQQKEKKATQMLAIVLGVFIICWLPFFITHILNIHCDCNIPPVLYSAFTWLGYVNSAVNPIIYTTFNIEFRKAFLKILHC
assay_readout: Ki (nM)

INSERT INTO assay_data (line_notation, assayed_system, quantity_unit, recorded_number) VALUES
  ('CCCN(CCCCc1cn(-c2ccc(C(=O)NCCCNS(=O)(=O)c3cccc4c(N(C)C)cccc34)cc2)nn1)C1Cc2ccccc2C1', 'human D2LR (Homo sapiens, UniProt P14416)', 'nM', 1.2),
  ('CN(C)c1cccc2c(S(=O)(=O)NCc3ccc(-n4cc(CCCCN5CCN(c6cc(C(F)(F)F)nc(C(C)(C)C)n6)CC5)nn4)cc3)cccc12', 'human D2LR (Homo sapiens, UniProt P14416)', 'nM', 7600),
  ('CCCN(CCCCc1cn(-c2ccc(CNS(=O)(=O)c3cccc4c(N(C)C)cccc34)cc2)nn1)C1Cc2ccccc2C1', 'human D2LR (Homo sapiens, UniProt P14416)', 'nM', 5.2),
  ('N#Cc1ccc(-n2cc(CCCCN3CCN(c4cccc(Cl)c4Cl)CC3)nn2)cc1', 'human D2LR (Homo sapiens, UniProt P14416)', 'nM', 15),
  ('CN(C)c1cccc2c(S(=O)(=O)NCc3ccc(-n4cc(CCCCN5CCN(c6cccc(Cl)c6Cl)CC5)nn4)cc3)cccc12', 'human D2LR (Homo sapiens, UniProt P14416)', 'nM', 20),
  ('CCCN(CCCCc1cn(-c2ccc(C(=O)NCCCN)cc2)nn1)C1Cc2ccccc2C1', 'human D2LR (Homo sapiens, UniProt P14416)', 'nM', 3.5),
  ('COc1ccccc1N1CCN(CCCCc2cn(-c3ccc(CNS(=O)(=O)c4cccc5c(N(C)C)cccc45)cc3)nn2)CC1', 'human D2LR (Homo sapiens, UniProt P14416)', 'nM', 17),
  ('COc1ccccc1N1CCN(CCCCc2cn(-c3ccc(C#N)cc3)nn2)CC1', 'human D2LR (Homo sapiens, UniProt P14416)', 'nM', 77);

----------
Entries and their pKi values follow.
target: porcine 5-HT1AR (Sus scrofa)
pKi: −log10 of the molar value.
assay_readout: pKi

INSERT INTO results (line_notation, assayed_system, recorded_number) VALUES
  ('CCCN(CCCCc1cn(-c2ccc(C(=O)NCCCNS(=O)(=O)c3cccc4c(N(C)C)cccc34)cc2)nn1)C1Cc2ccccc2C1', 'porcine 5-HT1AR (Sus scrofa)', 7.15),
  ('COc1ccccc1N1CCN(CCCCc2cn(-c3ccc(CNS(=O)(=O)c4cccc5c(N(C)C)cccc45)cc3)nn2)CC1', 'porcine 5-HT1AR (Sus scrofa)', 7.26),
  ('CCCN(CCCCc1cn(-c2ccc(CNS(=O)(=O)c3cccc4c(N(C)C)cccc34)cc2)nn1)C1Cc2ccccc2C1', 'porcine 5-HT1AR (Sus scrofa)', 7.57),
  ('CN(C)c1cccc2c(S(=O)(=O)NCCCNC(=O)c3ccc(-n4cc(CCCCN5CCN(c6cccc(Cl)c6Cl)CC5)nn4)cc3)cccc12', 'porcine 5-HT1AR (Sus scrofa)', 6.77);

----------
molecular target: porcine 5-HT2R (Sus scrofa)
Sequence (P50129 whole entry): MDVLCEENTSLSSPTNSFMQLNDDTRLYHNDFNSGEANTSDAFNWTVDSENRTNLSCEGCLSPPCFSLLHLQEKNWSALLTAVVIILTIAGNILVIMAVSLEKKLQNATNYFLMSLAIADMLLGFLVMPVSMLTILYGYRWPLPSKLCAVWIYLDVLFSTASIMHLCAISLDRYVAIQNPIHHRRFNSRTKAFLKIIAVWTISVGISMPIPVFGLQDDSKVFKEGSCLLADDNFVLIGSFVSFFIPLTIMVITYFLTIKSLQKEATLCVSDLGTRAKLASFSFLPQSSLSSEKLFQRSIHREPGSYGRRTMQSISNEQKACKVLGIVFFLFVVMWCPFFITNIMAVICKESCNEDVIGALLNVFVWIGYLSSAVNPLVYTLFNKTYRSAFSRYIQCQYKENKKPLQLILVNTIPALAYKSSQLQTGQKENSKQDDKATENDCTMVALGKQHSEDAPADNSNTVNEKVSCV
pKi: −log10 of the molar value.
assay_readout: pKi

INSERT INTO results (molecule, recorded_number) VALUES
  ('N#Cc1ccc(-n2cc(CCCCN3CCN(c4cccc(Cl)c4Cl)CC3)nn2)cc1 [2b]', 5.96),
  ('CCCN(CCCCc1cn(-c2ccc(C(=O)NCCCN)cc2)nn1)C1Cc2ccccc2C1 [7a]', 6.40),
  ('CCCN(CCCCc1cn(-c2ccc(CNS(=O)(=O)c3cccc4c(N(C)C)cccc34)cc2)nn1)C1Cc2ccccc2C1 [4a]', 6.66),
  ('CCCN(CCCCc1cn(-c2ccc(C(=O)NCCCNC(=O)c3ccc(-c4c5ccc(=N)c(S(=O)(=O)O)c-5oc5c(S(=O)(=O)O)c(N)ccc45)c(C(=O)O)c3)cc2)nn1)C1Cc2ccccc2C1 [10c]', 5.66);

----------
Parameter pKi, tested on porcine D1R (Sus scrofa), listed per item.
Sequence (P50130 whole entry): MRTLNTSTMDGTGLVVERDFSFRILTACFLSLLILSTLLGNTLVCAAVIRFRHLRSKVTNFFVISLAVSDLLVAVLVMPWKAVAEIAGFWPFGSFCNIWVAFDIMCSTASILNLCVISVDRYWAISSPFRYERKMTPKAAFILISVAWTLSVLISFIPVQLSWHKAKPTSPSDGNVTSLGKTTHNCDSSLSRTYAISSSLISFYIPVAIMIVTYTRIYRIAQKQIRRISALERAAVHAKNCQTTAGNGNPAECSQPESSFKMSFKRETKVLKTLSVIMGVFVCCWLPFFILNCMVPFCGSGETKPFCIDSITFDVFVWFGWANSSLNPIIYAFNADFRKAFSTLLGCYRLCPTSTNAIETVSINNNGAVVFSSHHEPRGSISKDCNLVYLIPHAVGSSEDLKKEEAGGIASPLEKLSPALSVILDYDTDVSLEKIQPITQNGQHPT
pKi: −log10 of the molar value.
assay_readout: pKi

INSERT INTO results (compound, recorded_number) VALUES
  ('CCCN(CCCCc1cn(-c2ccc(C(=O)NCCCN)cc2)nn1)C1Cc2ccccc2C1', 5.44),
  ('CC(C)(C)c1nc(N2CCN(CCCCc3cn(-c4ccc(C#N)cc4)nn3)CC2)cc(C(F)(F)F)n1', 5.26),
  ('CCCN(CCCCc1cn(-c2ccc(C(=O)NCCCNC(=O)Cc3ccc4c(c3)C(C)(C)C3=C5C=C6C7=[N+](CCC6OC5CCN34)c3ccc(S(=O)(=O)[O-])cc3C7(C)C)cc2)nn1)C1Cc2ccccc2C1 (stereo not drawn) [10b]', 5.29),
  ('CCCN(CCCCc1cn(-c2ccc(CNS(=O)(=O)c3cccc4c(N(C)C)cccc34)cc2)nn1)C1Cc2ccccc2C1', 6.23),
  ('N#Cc1ccc(-n2cc(CCCCN3CCN(c4cccc(Cl)c4Cl)CC3)nn2)cc1', 6.27),
  ('CCCN(CCCCc1cn(-c2ccc(C#N)cc2)nn1)C1Cc2ccccc2C1', 5.52);

----------
Target: porcine 5-HT1AR (Sus scrofa, UniProt A0A4X1UTF5)
Sequence (A0A4X1UTF5 1-422): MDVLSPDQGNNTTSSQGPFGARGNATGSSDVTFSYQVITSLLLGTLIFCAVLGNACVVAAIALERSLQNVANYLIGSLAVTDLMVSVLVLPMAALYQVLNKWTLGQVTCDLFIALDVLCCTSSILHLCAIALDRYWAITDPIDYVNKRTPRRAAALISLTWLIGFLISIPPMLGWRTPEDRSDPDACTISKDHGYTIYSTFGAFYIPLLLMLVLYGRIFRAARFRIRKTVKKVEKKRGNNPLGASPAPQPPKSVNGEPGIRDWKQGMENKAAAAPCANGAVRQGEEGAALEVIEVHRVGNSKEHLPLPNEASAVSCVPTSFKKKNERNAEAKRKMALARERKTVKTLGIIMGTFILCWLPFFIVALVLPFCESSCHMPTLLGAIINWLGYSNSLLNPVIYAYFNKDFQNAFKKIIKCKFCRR
assay_readout: Ki (nM)

INSERT INTO assay_data (compound, assay_readout, quantity_unit, recorded_number) VALUES
  ('CCCN(CCCCc1cn(-c2ccc(C#N)cc2)nn1)C1Cc2ccccc2C1 [2a]', 'Ki', 'nM', 52),
  ('CCCN(CCCCc1cn(-c2ccc(C(=O)NCCCN)cc2)nn1)C1Cc2ccccc2C1 [7a]', 'Ki', 'nM', 13),
  ('CC(C)(C)c1nc(N2CCN(CCCCc3cn(-c4ccc(C#N)cc4)nn3)CC2)cc(C(F)(F)F)n1 [2d]', 'Ki', 'nM', 4100);

----------
target: porcine α1-AR; assay: Radioligand competition, [3H]prazosin, porcine cerebral cortex homogenates; details: read-out: Ki pα1-AR, mean of n experiments
pKi: −log10 of the molar value.
Assign YES whenever pKi does not fall below 7; assign NO whenever it does.

INSERT INTO assay_data (line_notation, assayed_system, assigned_class) VALUES
  ('CC(C)(C)c1nc(N2CCN(CCCCc3cn(-c4ccc(C#N)cc4)nn3)CC2)cc(C(F)(F)F)n1', 'porcine α1-AR', 'NO'),
  ('CCCN(CCCCc1cn(-c2ccc(C(=O)NCCCN)cc2)nn1)C1Cc2ccccc2C1', 'porcine α1-AR', 'YES'),
  ('CCCN(CCCCc1cn(-c2ccc(C(=O)NCCCNS(=O)(=O)c3cccc4c(N(C)C)cccc34)cc2)nn1)C1Cc2ccccc2C1', 'porcine α1-AR', 'YES'),
  ('N#Cc1ccc(-n2cc(CCCCN3CCN(c4cccc(Cl)c4Cl)CC3)nn2)cc1', 'porcine α1-AR', 'YES'),
  ('CN(C)c1cccc2c(S(=O)(=O)NCc3ccc(-n4cc(CCCCN5CCN(c6cccc(Cl)c6Cl)CC5)nn4)cc3)cccc12', 'porcine α1-AR', 'YES'),
  ('CCCN(CCCCc1cn(-c2ccc(CNS(=O)(=O)c3cccc4c(N(C)C)cccc34)cc2)nn1)C1Cc2ccccc2C1', 'porcine α1-AR', 'YES');
